Data provenance: patent US20240084003A1

Attribute: kon
# Target: T1, human CD22-ECD-His protein (human, UniProt P20273 20-687)
# T1 construct: Recombinant, from HEK293E cells; also called hCD22-ECD-His; human CD22-His protein; not shown: His tag
# T1 sequence: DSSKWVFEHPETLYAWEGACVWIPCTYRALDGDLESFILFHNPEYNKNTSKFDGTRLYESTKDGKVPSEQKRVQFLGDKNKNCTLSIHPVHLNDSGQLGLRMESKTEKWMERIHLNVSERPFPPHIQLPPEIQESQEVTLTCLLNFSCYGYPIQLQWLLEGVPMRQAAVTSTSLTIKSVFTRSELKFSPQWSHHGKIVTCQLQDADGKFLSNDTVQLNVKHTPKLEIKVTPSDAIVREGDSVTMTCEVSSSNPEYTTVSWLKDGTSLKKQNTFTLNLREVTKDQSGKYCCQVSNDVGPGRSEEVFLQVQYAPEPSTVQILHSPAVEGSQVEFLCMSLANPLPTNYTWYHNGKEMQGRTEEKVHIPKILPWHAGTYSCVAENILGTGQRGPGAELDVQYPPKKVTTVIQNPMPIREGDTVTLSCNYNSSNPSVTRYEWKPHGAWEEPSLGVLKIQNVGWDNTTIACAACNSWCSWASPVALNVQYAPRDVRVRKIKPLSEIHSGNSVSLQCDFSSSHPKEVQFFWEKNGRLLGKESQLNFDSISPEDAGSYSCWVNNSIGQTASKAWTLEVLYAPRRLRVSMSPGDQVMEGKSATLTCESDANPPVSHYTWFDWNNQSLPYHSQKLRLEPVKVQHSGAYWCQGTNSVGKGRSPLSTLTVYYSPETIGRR
# Method: SPR (Biacore), antibody captured on Protein A chip, CD22-ECD-His in solution

Binder: F1.216.2 (antibody, human IgG1, kappa, V domains shown, Chimeric IgG1 kappa) VH: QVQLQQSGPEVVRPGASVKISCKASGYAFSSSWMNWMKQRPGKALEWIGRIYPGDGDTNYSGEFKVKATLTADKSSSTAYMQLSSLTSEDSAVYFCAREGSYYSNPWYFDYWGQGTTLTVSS VL: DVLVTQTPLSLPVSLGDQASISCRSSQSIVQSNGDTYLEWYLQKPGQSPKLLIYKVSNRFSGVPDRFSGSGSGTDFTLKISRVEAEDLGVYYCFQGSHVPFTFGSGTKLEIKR
kon, M⁻¹ s⁻¹: 37300

Binder: F2.55.1 (antibody, human IgG1, lambda, V domains shown, Chimeric IgG1 lambda) VH: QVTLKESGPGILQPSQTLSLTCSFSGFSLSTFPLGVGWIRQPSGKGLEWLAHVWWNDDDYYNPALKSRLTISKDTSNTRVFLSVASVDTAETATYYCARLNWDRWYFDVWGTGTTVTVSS VL: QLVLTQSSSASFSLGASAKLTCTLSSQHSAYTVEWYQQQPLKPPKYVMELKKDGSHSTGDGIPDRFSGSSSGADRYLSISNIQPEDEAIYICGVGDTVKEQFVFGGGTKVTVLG
kon, M⁻¹ s⁻¹: 127000

Binder: F2.151.13 (antibody, human IgG1, lambda, V domains shown, Chimeric IgG1 lambda) VH: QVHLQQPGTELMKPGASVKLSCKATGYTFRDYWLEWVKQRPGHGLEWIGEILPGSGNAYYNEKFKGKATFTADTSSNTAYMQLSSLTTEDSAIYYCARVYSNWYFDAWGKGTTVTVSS VL: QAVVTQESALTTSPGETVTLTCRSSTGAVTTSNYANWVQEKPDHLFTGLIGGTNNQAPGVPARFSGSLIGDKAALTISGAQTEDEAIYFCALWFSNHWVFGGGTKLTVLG
kon, M⁻¹ s⁻¹: 23500
